Items are presented alongside their recorded Median FL2-H.
Molecular target: T1, BCMA expressed on multiple myeloma cell lines H929 and MM1S (UniProt Q02223 1-184, limits assumed)
T1 construct: whole, on cells; Endogenous BCMA on tumour cell lines; also called BMCA; cell surface BCMA
T1 sequence (looked up): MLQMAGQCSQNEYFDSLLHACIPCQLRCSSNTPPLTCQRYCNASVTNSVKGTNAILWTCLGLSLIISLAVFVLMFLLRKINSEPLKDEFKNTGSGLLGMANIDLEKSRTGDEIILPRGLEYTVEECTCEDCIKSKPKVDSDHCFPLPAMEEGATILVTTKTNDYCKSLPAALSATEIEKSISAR
Experiment: flow cytometry, MM1S cells, purified VH-Fc protein, 100nM per the sample name; control anti-hFc-PE Median 2.50 [B), MM1S table]
Just the number.

Consider the following illustrative entries.
MN5 VH-Fc protein (Fc fusion, VH domain fused to a human IgG1 Fc domain; not shown: human IgG1 Fc domain) EVQLVESGGGLVQPGGSLRLSCAASGFTFSSYAMGWVRQAPGKGPEVVSLISGSGGSTWYDDSVKGRFTISRDNSKNTLYLQMNSLRAEDTAVYYCASREDNMTTWGQGTLVTVSS    2.64
MN8 VH-Fc protein (Fc fusion, VH domain fused to a human IgG1 Fc domain; not shown: human IgG1 Fc domain) EVQLVESGGGLVQPGGSLRLSCAASGFTFSSYAMGWVRQAPGKGPEVVSLISGSGGSTWYDDSVKGRFTISRDNSKNTLYLQMNSLRAEDTAVYYCASPEDAPSYSRWGQGTLVTVSS    2.77
MN1 VH-Fc protein (Fc fusion, VH domain fused to a human IgG1 Fc domain; not shown: human IgG1 Fc domain) EVQLVESGGGLVQPGGSLRLSCAASGFTFTAYDMGWVRQAPGKGPEWVSLISSDSGDTWYDDSVKGRFTISRDNSKNTLYLQMNSLRAEDTAVYYCARLGAYSTTYDYWGQGTLVTVSS    42.1

Consider the record given below.
Fill in reported Median FL2-H for this entry: MN7 VH-Fc protein (Fc fusion, VH domain fused to a human IgG1 Fc domain; not shown: human IgG1 Fc domain) EVQLVESGGGLVQPGGSLRLSCAASGFTFSSYAMGWVRQAPGKGPEVVSLISGSGGSTWYDDSVKGRFTISRDNSKNTLYLQMNSLRAEDTAVYYCASPEDMYQTWGQGTLVTVSS
2.55
